meta.source: patent US20230210816A1

tested on: MLV pseudovirus bearing MARV Angola glycoprotein; experiment: microbe, parasite or virus in culture; format: cell-based
Value kind: IC50 (µM)
Form entry: value (µM) — number only.

Q. Fill in the blank: the reported IC50 of CCOC(=O)c1c(CSc2ccccc2)n(C)c2cc(Br)c(O)c(CN(C)C)c12 is ____.
A. 3.9

====

tested on: MLV pseudovirus bearing JUNV glycoprotein; experiment: microbe, parasite or virus in culture; type: cell-based; conditions: Vero, 24 h
Value kind: IC50 (µM)
Form entry: value (µM) — number only.

Q. Fill in the blank: the reported IC50 of CCOC(=O)c1c(CSc2ccccc2)n(C)c2cc(Br)c(O)c(CN(C)C)c12 is ____.
A. 6.4
